- ASSAY_PROCEDURE: Antigen / drug loading efficiency in HDL nanodiscs (HPLC/MS)
- Type: physicochemical
- CONDITION_SET: antigen / antigen-lipid conjugate loaded into HDL nanodiscs; HPLC/MS
Assign loading efficiency in HDL to each entry below.

The cases that follow already have their loading efficiency in HDL on record.
ISQAVHAAHAEINEAGR [OVA-II, ovalbumin-II 323-339 peptide, modified with CSS-peptide at N-terminus] :: ~84%
ASFEAQGALANIAVDKA [Ea chain 52-68 peptide, modified with CSS-peptide at N-terminus] :: ~90%
MEVGWYRSPFSRVVHLYRNGK [free MOG peptide] :: ~90%

Turning now to a further sequence:
Enquiry: Read the entry GPKGQTGKPGIAGFKGEQGPK [CIA, type-II collagen 250-270 peptide, modified with CSS-peptide at N-terminus] and write its reported loading efficiency in HDL.
Return: ~78%
